Recorded values, source PubChem BioAssay (EPA / NIEHS).

experiment: CCTE_Simmons_MITO_viability: CellTiter-Glo Viability Assessment for CCTE's HepG2 Seahorse XF Respirometric Screening Assay [post-hoc], Simmons Lab (AID 2284007)
Records with an inconclusive call do not appear. The source made the active and inactive calls. Rule for the calls: active = hit-call score of the fitted dose curve at least 0.9, where 1 is the maximum; inconclusive = response in the unintended direction; inactive = score below 0.9.
One label from this list, please: 1.0 (active), 0.0 (inactive)

Answered cases to consult:
COc1nc(NC(C)C)nc(NC(C)C)n1 :: 0.0
CC(C)(C)c1ccc(CSc2cnn(C(C)(C)C)c(=O)c2Cl)cc1 :: 1.0
O=C(Nc1ccccc1)Nc1ccnc(Cl)c1 :: 0.0

Prompt line: Lab log entry: CC1COC(Cn2cncn2)(c2ccc(Oc3ccc(Cl)cc3)cc2Cl)O1 (centres undefined) — outcome as called in the assay?
Response line: 0.0

Prompt line: Lab log entry: `N#Cc1cc(Br)c(O)c(Br)c1` — outcome as called in the assay?
Response line: 1.0

Prompt line: Lab log entry: `CC(C)Oc1cc(-n2nc(C(C)(C)C)oc2=O)c(Cl)cc1Cl` — outcome as called in the assay?
Response line: 0.0

Prompt line: Lab log entry: `CCCN(CCC)c1c([N+](=O)[O-])cc(S(N)(=O)=O)cc1[N+](=O)[O-]` — outcome as called in the assay?
Response line: 0.0

Prompt line: Lab log entry: `CCc1nn(C)c(C(=O)NCc2ccc(C(C)(C)C)cc2)c1Cl` — outcome as called in the assay?
Response line: 1.0

Prompt line: Lab log entry: OC(c1ccc(Cl)cc1)(c1cncnc1)c1ccccc1Cl (centres undefined) — outcome as called in the assay?
Response line: 0.0
